- System: NCI/ADR-RES ovarian
- test name: NCI-60 one-dose screen, 48 h (100 = growth as untreated, 0 = no growth, -100 = all killed)
- condition details: 10 µM unless noted
The panel holds about 83,000 compounds, 20% with a hit somewhere; the sample as a whole holds those more often.
Consider the reported growth of an entry and match it to a band in band A (below 60%), band B (60% to below 90%), band C (90% or more)

Below are worked cases with known answers.
compound: Cc1cc(Nc2nc(-c3ccc(F)cc3)nc3ccccc23)n[nH]1
class name: band B
//
compound: CC(=O)N1Cc2ccccc2C(C)Cc2cc(Cl)ccc21 (stereo not given)
class name: band C
//
compound: COc1cccc(-c2nc3sccn3c2-c2ccnc(NCCCNS(=O)(=O)c3ccc(F)cc3)n2)c1
class name: band A
//
compound: FC(F)(F)c1cccc(-n2nnc3cnc(Nc4ccc(N5CCCCC5)cc4)nc32)c1
class name: band B
//
compound: Cc1cccc2cc(/C=C/C(=O)/C=C/c3ccc(Cl)cc3)c(=O)[nH]c12
class name: band C

Input line: Tag the class for NC(CC(N)C(=O)O)C(=O)O (stereo not given)
Output line: band C

Input line: Param item: COc1ncc(-c2ccc3ncnc(Nc4cccc(Cl)c4)c3c2)cc1NS(=O)(=O)C1CC1
Output line: band A

Input line: Param item: CCCCCc1c(C)[nH]c(/C=c2\[nH]/c(=C3/C=c4ccccc4=N3)cc2OC)c1C
Output line: band A

Input line: Param item: CCOC(=O)C1=C(CSC(=S)N(C2CCCCC2)C2CCCCC2)N(C)C(=O)NC1c1ccccc1 (stereo not given)
Output line: band B

Input line: Param item: CC(Br)C(OC(=O)c1ccccc1Cl)c1cc2c(cc1Br)OCO2 (stereo not given)
Output line: band B

====

- System: IGROV1 ovarian
- test name: NCI-60 one-dose screen, 48 h (100 = growth as untreated, 0 = no growth, -100 = all killed)
- condition details: 10 µM unless noted
This is part of a sample that, as a whole, favours compounds with a hit. Of some 83,000 tested, about 20% had one in any assay.
Threshold 40%. growth below it: yes. growth at it or above: no.

compound: Cc1ccc(Oc2nc3ccccc3cc2-c2nnc(Cn3c(COc4ccccc4)nc4ccccc43)o2)cc1
class name: yes
//
compound: CCCCNC(=O)NS(=O)(=O)c1ccc(N2N=C(c3ccc(C)cc3C)CC2c2ccc(OC)cc2)cc1 (centres undefined)
class name: no
//
compound: CCN(C(=O)c1cc2ccccc2[nH]1)[C@H]1CCC[C@@H](NCc2ccc(OC)cc2)C1
class name: no

Input line: Threshold test, growth < 40%: Nc1nn2cc(-c3ccc(Cl)s3)nc2c2ccccc12
Output line: no

Input line: Param item: Nc1c(C(=O)Nc2ccccc2)sc2nc3c(cc12)CCCCC3
Output line: yes

Input line: Param item: O=C(/C=C/CN1CCOCC1)Nc1cc2c(Nc3cccc(Cl)c3F)ncnc2cc1OCCOC(F)F
Output line: yes

====

- Tested on: SR leukemia
- test name: NCI-60 one-dose screen, 48 h (100 = growth as untreated, 0 = no growth, -100 = all killed)
- condition details: 10 µM unless noted
This is part of a sample that, as a whole, favours compounds with a hit. Of some 83,000 tested, about 20% had one in any assay.
Consider the reported growth of an entry and match it to a band in low: < 20%; middle: ≥ 20% and < 60%; high: ≥ 60%

Input line: Tag the class for Cc1ccc(S(=O)(=O)OC2COCOC2C(OS(=O)(=O)c2ccc(C)cc2)C2OCOCC2OS(=O)(=O)c2ccc(C)cc2)cc1 (stereo unspecified)
Output line: high

Input line: Param item: CCOP(=O)(CCN1CCN(CCCCCOc2cc3c(cc2OC)C(=O)N2CCC[C@H]2C=N3)CC1)OCC
Output line: middle

Input line: Param item: COc1ccc(-c2nc3sccn3c2-c2ccnc(NCCCNS(=O)(=O)c3ccc(C)cc3)n2)cc1
Output line: middle

Input line: Param item: O=C(COc1ccccc1)N1N=C(c2ccc(Cl)cc2)CC1c1c[nH]c2ccccc12 (stereo unspecified)
Output line: low

Input line: Param item: CN(C)C/C=C/C(=O)Nc1cc2c(Nc3cccc(Cl)c3F)ncnc2cc1OCCOC(F)F
Output line: middle

Input line: Param item: O=C1NCC(c2cc3ccccc3[nH]c2=O)Nc2ccccc21 (stereo unspecified)
Output line: high

====

- Test system: MALME-3M melanoma
- test name: NCI-60 one-dose screen, 48 h
- condition details: 10 µM unless noted
Compounds without any hit were thinned out: in the full panel of roughly 83,000, 20% have a hit. Active and inactive are the calls of the source. How the source made its calls: active means growth percent below 10; inactive means the rest.
Field 'call' accepts active, inactive

Below are worked cases with known answers.
compound: NC(=S)NN=C1CCCCC1
class name: inactive
//
compound: COc1cc(NC(=O)CCl)ccc(=O)c1
class name: inactive
//
compound: O=[N+]([O-])c1cc(S(=O)(=O)OCC2CO2)ccc1Cl (stereo not given)
class name: inactive

Input line: Lab log entry: CC[C@H](C)[C@H]1NC(=O)[C@@H](N[C@](C)(O)[C@@H](N)CC(C)C)[C@@H](C)OC(=O)[C@H](Cc2ccc(OC)cc2)N(C)C(=O)[C@@H]2CCCN2C(=O)[C@H](CC(C)C)NC(=O)[C@@H](C)C(=O)[C@H](C(C)C)OC(=O)C[C@@H]1O — outcome as called in the assay?
Output line: active

Input line: Param item: CCC1CCc2nc3sc(C(=O)Nc4ccccc4F)c(N)c3cc2C1 (stereo not given)
Output line: inactive

Input line: Param item: CC1Cc2c(N(C)C)ncnc2N(C)c2ccc(O)cc21 (stereo not given)
Output line: inactive

Input line: Param item: COC1=CC(c2ccc[nH]2)=N/C1=C\c1[nH]c(C)c(C(=O)CCCCC(=O)Oc2ccc3c(c2)CCC2C3CC[C@]3(C)[C@@H](O)CC[C@@H]23)c1C (stereo not given in full)
Output line: inactive

Input line: Param item: COc1cc(C2C=C(C)N=C3SC=CN32)cc(OC)c1OC (stereo not given)
Output line: inactive

Input line: Param item: C[N+](C)(C)c1ccc(CC2c3ccccc3-c3ccccc32)cc1
Output line: inactive

Input line: Param item: CCn1cc(C(=O)O)c(=O)c2cc(F)c(N3CCN(S(=O)(=O)c4c(C)cc(C)cc4C)CC3)cc21
Output line: inactive

====

- Tested on: UACC-62 melanoma
- test name: NCI-60 one-dose screen, 48 h (100 = growth as untreated, 0 = no growth, -100 = all killed)
- condition details: 10 µM unless noted
About 83,000 compounds went through this panel and 20% of them were active in at least one assay; those are over-represented in the sample as a whole.
Threshold 90%. growth below it: Met. growth at it or above: Not met.

Below are worked cases with known answers.
molecule: CCCCCCc1nc2c(c(C)nn2-c2ccccc2)c2c1CCCCC2
subject of test: UACC-62 melanoma
class name: Not met

molecule: CCN(C(=O)c1cc2ccccc2[nH]1)[C@H]1CCC[C@@H](NCc2ccc(OC)cc2)C1
subject of test: UACC-62 melanoma
class name: Not met

molecule: Cc1cccc2cc(/C=C/C(=O)/C=C/c3ccc(Cl)cc3)c(=O)[nH]c12
subject of test: UACC-62 melanoma
class name: Met

molecule: COc1cc(NS(C)(=O)=O)ccc1Nc1c2ccc([N+](=O)[O-])cc2nc2c(C)cccc12
subject of test: UACC-62 melanoma
class name: Met

molecule: O=S(=O)(NCCCNc1nccc(-c2c(-c3ccccc3)nc3sccn23)n1)c1ccc(F)cc1
subject of test: UACC-62 melanoma
class name: Met

Input line: Threshold test, growth < 90%: CCN1C(=O)N(CC)C2Nn3c(s/c(=C\c4cccc(F)c4)c3=O)=NC21 (stereo unspecified)
Output line: Met

Input line: Param item: COc1ccc(-c2nc3sccn3c2-c2ccnc(NCCNS(=O)(=O)c3ccc(C(F)(F)F)cc3)n2)cc1
Output line: Met

Input line: Param item: COc1cc(NC(=O)CSc2nc3ccc(C)cc3c(=O)n2-c2ccccc2)cc(OC)c1OC
Output line: Met

Input line: Param item: CC/C=C\C[C@H](O)C/C=C1/C(=O)C(Cl)=C[C@@H]1C/C=C\CCCC(=O)O
Output line: Met

Input line: Param item: Nc1ccccc1C#C/C=C\C#Cc1cccc(O)c1
Output line: Met

Input line: Param item: COc1ccc(-c2nnc(COc3ccc(NC(=O)Nc4ccc(Cl)c(C(F)(F)F)c4)cc3F)o2)cc1
Output line: Met

Input line: Param item: CC(C(=O)n1cc(-c2ccccc2)c(-c2ccccc2)c1)c1ccccc1 (stereo unspecified)
Output line: Not met

====

- System: UO-31 renal
- test name: NCI-60 one-dose screen, 48 h (100 = growth as untreated, 0 = no growth, -100 = all killed)
- condition details: 10 µM unless noted
This is part of a sample that, as a whole, favours compounds with a hit. Of some 83,000 tested, about 20% had one in any assay.
Threshold 70%. growth below it: 1. growth at it or above: 0.

Below are worked cases with known answers.
compound: CCN(CC)CCCC(C)N=c1cc(Nc2cc(=NC(C)CCCN(CC)CC)c3cc(OC)ccc3o2)oc2ccc(OC)cc12 (stereo not given)
class name: 1
//
compound: Clc1nc(-c2cccnc2)nc2sc3c(c12)CCCCCC3
class name: 0
//
compound: COc1cc(Cn2c(SCCC(=O)Nc3ccc(F)cc3)nc3ccccc3c2=O)cc(OC)c1OC
class name: 1

Input line: Threshold test, growth < 70%: NC(CC(N)C(=O)O)C(=O)O (stereo not given)
Output line: 0

Input line: Param item: COc1ccc2c(c1)C(C)Cc1c(N(C)C)ncnc1N2C (stereo not given)
Output line: 1

Input line: Param item: COc1ccc(/C=C/c2nc(N3CCOCC3)c3nc(Cl)c(Cl)cc3n2)cc1OC
Output line: 0

Input line: Param item: C=C1C(=O)O[C@H]2[C@H]1CC/C(Cn1cc(-c3ccc(N)cc3)nn1)=C\CC[C@@]1(C)O[C@@H]21
Output line: 1

Input line: Param item: COc1cc(C2C3=C(COC3=O)Nc3c2ccc2c3CCCC2)cc2c1OCO2 (stereo not given)
Output line: 1
